system tested: human GCG receptor (human, UniProt P47871 26-477)
Sequence (P47871 26-477): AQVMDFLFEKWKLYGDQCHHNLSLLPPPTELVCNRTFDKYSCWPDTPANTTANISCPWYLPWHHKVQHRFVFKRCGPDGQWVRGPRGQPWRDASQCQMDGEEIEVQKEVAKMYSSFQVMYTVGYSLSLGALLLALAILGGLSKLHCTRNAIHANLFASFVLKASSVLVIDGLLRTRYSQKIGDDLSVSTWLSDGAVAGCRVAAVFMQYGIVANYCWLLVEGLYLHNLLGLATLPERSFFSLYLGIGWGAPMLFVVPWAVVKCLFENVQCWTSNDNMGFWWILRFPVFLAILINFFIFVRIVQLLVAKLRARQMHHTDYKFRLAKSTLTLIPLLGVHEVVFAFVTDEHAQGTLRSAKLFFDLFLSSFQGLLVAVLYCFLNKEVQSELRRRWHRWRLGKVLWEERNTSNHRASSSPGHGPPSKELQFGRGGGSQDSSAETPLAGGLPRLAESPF
run description: cell-based or functional assay
Starred links: 1 amine or outer side, 2 acyl side, 3 side chain; linkers in the order of their positions; H or OH if unused. Non-standard residues stand in square brackets, D forms with d. Groups on a side chain read outwards from the residue. No end group written: not given here. *: point of attachment. C20 diacid = O=C(O)CCCCCCCCCCCCCCCCCCC(=O)*; γGlu = O=C(O)[C@H](CCC(=O)[*:2])N[*:1]; αMeF = C[C@](N)(Cc1ccccc1)C(=O)O; AEEA = NCCOCCOCC(=O)O; Ac3c = NC1(C(=O)O)CC1; Aib = CC(C)(N)C(=O)O
Classes based on cAMP Rel. A (%) against human GCG, human GCG R cells: low value = under 40%, medium value = from 40% up to 200%, high value = 200% and over

Some solved entries appear below for comparison.
>>> category_label("YXQGTXTSDYSIXLDKKAQXAFIEFLLEGRPSSXHPPPS (Aib at 2; αMeF at 6; αMeL at 13; Lys 17 side chain AEEAc-AEEAc-γGlu-CO(CH2)18COOH; Aib at 20; Aib at 34; C-terminal amide (NH2)) [Compound 37]")
"medium value"
>>> category_label("YXQGTXTSDYSIFLDKKAQXAFIEYLLEXHPSSGAPPXS (Aib at 2; αMeF(2F) at 6; Lys 17 side chain AEEAc-AEEAc-γGlu-CO(CH2)18COOH; Aib at 20; Aib at 29; Ac3c at 38; C-terminal amide (NH2)) [Compound 32]")
"high value"
>>> category_label("YXQGTXTSDYSIFLDKKAQXAFIEFLLEXHPSSGAPPPS (Aib at 2; αMeF at 6; Lys 17 side chain AEEAc-AEEAc-γGlu-CO(CH2)18COOH; Aib at 20; Aib at 29; C-terminal amide (NH2)) [Compound 16]")
"low value"
>>> category_label("Y[Aib]QGT[αMeF]TSDYSIXLDKK([AEEA-AEEA-γGlu-C20 diacid])AQ[Aib]AFIEFLLES[Aib]PSSGAPP[Ac3c]S-NH2 (not fully specified (residue 13); printed as Y-Aib-QGT-αMeF-TSDYSI-αMeF-LDKK(AEEAc-AEEAc-γGlu-CO(CH2)18COOH)AQ-Aib-AFIEFLLES-Aib-PSSGAPP-Ac3c-S-NH2) [Compound 28]")
"low value"

Now for a further binder.
Each binder maps to one class by cAMP Rel. A (%) against human GCG, human GCG R cells. Which class for YXQGTXTSDYSIXLDKKAQXAFIEFLLESHPSSXHPPXS (Aib at 2; αMeF at 6; αMeL at 13; Lys 17 side chain AEEAc-AEEAc-γGlu-CO(CH2)18COOH; Aib at 20; Aib at 34; Ac3c at 38; C-terminal amide (NH2)) [Compound 33] ?
low value
